System: MDA-MB-231
experiment: NCI tumour cell line growth inhibition, 48 h
Activity calls are given as the source filed them. Cut-off read from the data, not from the text of the source: active = GI50 up to about 1.1 µM and inactive = higher.
GI50 overview

Cc1ccc(/C=C2\Cc3cccc(C)c3C2=O)c(C(=O)O)c1	66.2 µM (inactive)

Request: Given the entry CC(=O)/C(=N\N=C(N)N)c1ccccc1 , report its measured GI50.
Response: > 100 µM (inactive)

Request: Queued: O=C(O)Cn1ccnc1[N+](=O)[O-]
Response: > 100 µM (inactive)

Request: // repeat for CCCCCC(=O)OCC1(CO)C/C(=C\CC(C(C)C)C(C)C)C(=O)O1 (configuration not stated) and report
Response: > 100 µM (inactive)

---

Test system: HCT-116
experiment: NCI tumour cell line growth inhibition, 48 h
Activity calls are given as the source filed them. No stated cut-off is given here; in the data, active = GI50 up to about 1.1 µM and inactive = higher.
experimental-readout: GI50

Here's what some known entries look like.
O=C1CSC(c2ccccc2O)N1c1ccc2c(c1)Oc1c(Cl)c3c(c(Cl)c1=N2)Oc1cc(N2C(=O)CSC2c2ccccc2O)ccc1N=3 (stereo not given)	30.6 µM (inactive)
C/C(=C1\C(=O)C(c2ccccc2)N(c2ccccc2)C1=O)c1ccc(Cl)cc1 (stereo not given)	16.4 µM (inactive)
CC1CC(C)C(O)C(C2CC(CC(=O)NC3CCCCC3)CC(=O)O2)C1 (stereo not given)	> 100 µM (inactive)
CSc1nc(N)c(NC2OC(CO)C(O)C2O)c(=O)[nH]1 (stereo not given)	> 100 µM (inactive)
CCc1nc2ccccc2c(=O)n1/N=C(\N=N\c1ccc(Cl)cc1)c1ccc(N(C)C)cc1	17.7 µM (inactive)
COc1cc(N(C)C)c(OC)cc1/C=C\c1ccnc2ccccc12	3.09 µM (inactive)

Request: Quick one: GI50 of COc1ccc(Nc2[nH]c(C(C)=O)c(N)c2C(=S)Nc2ccccc2)cc1 ?
Response: 38.6 µM (inactive)

Request: O=C1c2c(ccc3c2CCCC3)CC1Cc1ccc2c(c1)CCCC2 (stereo not given)
Response: 25.5 µM (inactive)

Request: Could you do the same for C(=N\c1ccc(-c2cc(-c3ccccc3)nc3ccc4ccccc4c23)cc1)/c1ccccc1 , please?
Response: 16.6 µM (inactive)

Request: Ok, now O=C(O)CNS(=O)(=O)c1ccc(NCc2ccccc2)cc1
Response: > 100 µM (inactive)

---

Test system: OVCAR-3
experiment: NCI tumour cell line growth inhibition, 48 h
Calls of active or inactive are those of the source. Rule as the data show it: active = GI50 up to about 1.1 µM and inactive = higher.
experimental-readout: GI50

See these solved cases before continuing.
CCOC(=O)C(=O)Nc1cc(Cl)ccc1Cl	> 100 µM (inactive)
CC(=O)N1C=Cc2c(c(C)c3c([nH]c4ccccc43)c2C)C1	1.74 µM (inactive)
Clc1sc(Cl)c2c1[C@H](Cl)C[C@@H]2Cl	24.2 µM (inactive)
Cc1cn2c(=O)c3ccccc3nc2s1	> 100 µM (inactive)
CCCCON1C[C@@H](O)C(O)[C@@H](O)C1 (stereo partly specified)	> 100 µM (inactive)

# context switch: different molecule, same GI50
Request: For the molecule O=C(c1ccc(Cl)cc1)N(C(=S)OCc1ccccn1)c1ccccc1 , what GI50 is on record?
Response: 52.7 µM (inactive)

---

System: HCT-116
experiment: NCI tumour cell line growth inhibition, 48 h
Activity calls are given as the source filed them. Rule as the data show it: active = GI50 up to about 1.1 µM and inactive = higher.
Just give me one of these, please: Y (active), N (inactive)

Check out these entries, answers already filled in.
OCC12C=CC(C1)c1ccccc12 (stereo unspecified)	N
COc1ccc(C(=O)Cc2c(C(=O)c3ccccc3)c3ccccc3n2C(=O)c2ccccc2)cc1	N
CC(=C(C(N)=O)C(N)=O)C1C=C(c2cccs2)CC(c2ccc(Cl)cc2)=C1O (stereo unspecified)	N

Request: What was the test verdict on C/C=C(\C)C(=O)O[C@@H]1CC(C)(C)CC2C3=CCC4[C@]56CC[C@](O)(OC5)C(C)(C)C6CC[C@@]4(C)C3(C)CC[C@]21C(=O)O (stereo partly specified) ?
Response: N

Request: Subsequent entry: O=C(CN1CCCC1)Nc1ccc2c(c1)C1Oc3ccccc3CC1CO2 (stereo unspecified)
Response: N

Request: Next record, please: CC(C)C(Br)C(=O)NCC(=O)O (stereo unspecified)
Response: N

Request: Next up: CCC1c2[nH]c3ccccc3c2C[C@H]2C(=O)NC(CCCCNC(=O)OC(C)(C)C)C(=O)N12 (stereo partly specified)
Response: N

Request: Let us now turn to CC1CCCN1CCCOC(=O)c1ccc(OC2C=CCCC2)cc1 (stereo unspecified)
Response: N

---

Tested on: XF498
experiment: NCI tumour cell line growth inhibition, 48 h
The source made the active and inactive calls. No stated cut-off is given here; in the data, active = GI50 up to about 1.1 µM and inactive = higher.
Respond only with the outcome that fits, drawn from label 1 for active, label 0 for inactive

Worked set:
C=CCCn1nc(-c2ccccc2)oc1=O	label 0
COC1/C=C\C=C(/C)C(=O)NC2=CC(=O)C=C(C2=O)C(OC)C(C)CC(OC)C(OC)C(C)/C=C(/C)C1OC(N)=O (configuration not stated)	label 0
NC(=S)N/N=C(\CCC(=O)Nc1ccccc1[N+](=O)[O-])CC(=O)c1ccco1	label 0
CN(C)c1ccc(/C=C/C(=O)C(C)(C)C)cc1Br	label 0
CN=[S+]([O-])(c1ccccc1)c1ccccc1	label 0
CCc1nc2ccccc2c(=O)n1/N=C(\N=N\c1ccc(Cl)cc1)c1ccc(N(C)C)cc1	label 0

Now examine the next entry.
Request: Outcome? COc1ccc(C(=O)Cc2c(C(=O)c3ccccc3)c3ccccc3n2C(=O)c2ccccc2)cc1
Response: label 0

---

Measured GI50 of individual entries
Test system: HOP-62
experiment: NCI tumour cell line growth inhibition, 48 h
Activity calls are given as the source filed them. Rule as the data show it: active = GI50 up to about 1.1 µM and inactive = higher.

Before answering, review these 3 worked examples.
O=C(CC(=O)C1=CNc2ccccc2S1)C(=O)Nc1ccc(Cl)cc1	> 50 µM (inactive)
CC(C)(C)OC(=O)N1CCC23CCCC2C(=O)CC=C13 (stereo unspecified)	> 100 µM (inactive)
Cc1ccc(O)c(C2=NNC(c3cccc(Cl)c3)C2)c1 (stereo unspecified)	79.8 µM (inactive)

Request: Fill in the recorded GI50 for this molecule, with HOP-62 as test system: CCOC(=O)C(CC(C)C)NC(=O)C(Cc1ccc(N(CCCl)CCCl)cc1)NC(C)=O (stereo unspecified)
Response: 3.01 µM (inactive)

Request: Next entry: NNC(=O)/C(NC(=O)c1ccccc1)=C(\N)c1cccc([N+](=O)[O-])c1
Response: > 100 µM (inactive)

Request: What would you report for Clc1ccc(C(Cc2ccccc2)c2c(Cl)nc(N3CCNCC3)nc2Cl)cc1 (stereo unspecified) ?
Response: 15.7 µM (inactive)

Request: Try the molecule CC(C)=CCC(O)C1=CC(=O)c2c(O)ccc(O)c2C1=O (stereo unspecified)
Response: 1.82 µM (inactive)

Request: Now try COc1ccc(C(=O)Oc2c(C#N)sc3c2c(=O)n(-c2ccccc2)c(=S)n3-c2ccccc2)cc1 .
Response: 24.7 µM (inactive)

---

Listed below: GI50 values for each entry.
Tested on: LOX IMVI
experiment: NCI tumour cell line growth inhibition, 48 h
Calls of active or inactive are those of the source. No stated cut-off is given here; in the data, active = GI50 up to about 1.1 µM and inactive = higher.

O=C(CN(C(=O)OC12CC3CC(CC(C3)C1)C2)C(=O)OC12CC3CC(CC(C3)C1)C2)Oc1ccc([N+](=O)[O-])cc1	> 100 µM (inactive)
CC1=CC(=O)c2ccccc2C1=O	2.04 µM (inactive)
CC1(C)CC2(C)CC1CC2O (stereo not given)	> 100 µM (inactive)
CN(c1ccccc1)c1c(Cl)c(=O)oc2c1ccc1occc12	97.3 µM (inactive)
O=C(O)CNC(=O)c1ccc2cc(C(=O)N3CC(CCl)c4ccc([N+](=O)[O-])cc43)[nH]c2c1 (stereo not given)	> 100 µM (inactive)
CN=[S+]([O-])(c1ccccc1)c1ccccc1	> 100 µM (inactive)

Request: Item O=C(CC(=O)C1=CNc2ccccc2S1)C(=O)Nc1ccc(Cl)cc1 has what recorded GI50?
Response: > 50 µM (inactive)

Request: Queued: N#CC1(C#N)C(C#N)(C#N)C12CCCCCC2
Response: 16.7 µM (inactive)

Request: One more compound: Cc1cc(N(CCC#N)CCC#N)ccc1/C=C1N=C(/C=C/c2ccccc2)N(c2ccc(S(N)(=O)=O)cc2)C\1=O
Response: > 100 µM (inactive)

Request: Record: NC(Cc1cccc([N+](=O)[O-])c1)C(=O)O (stereo not given)
Response: > 100 µM (inactive)

---

System: OVCAR-3
experiment: NCI tumour cell line growth inhibition, 48 h
Active and inactive are the calls of the source. Rule as the data show it: active = GI50 up to about 1.1 µM and inactive = higher.
Returns: one label drawn from active, inactive

Here are 4 molecules together with their reported answers.
CCN(CC)Cc1sc2nc3ccccc3n2c1-c1ccc(OC)cc1	inactive
N#C/C(=C\c1ccc(O)cc1)C(N)=O	inactive
COc1cc([C@@H]2c3cc4c(cc3[C@@H](OC(=O)c3cccc(N)c3)C3COC(=O)[C@@H]32)OCO4)cc(OC)c1O (some centres undefined)	inactive
CCOC(=O)c1cn(CC)c2cc3c(cc2c1=O)SCS3	inactive

Request: Tell me the assay call for CC1C(c2ccc(N(C)C)cc2)c2cc3c(cc2OC1N1CCCC1)OCO3 (centres undefined) please.
Response: inactive

Request: Consider next the molecule COc1ccc2c(c1)[n+]([O-])c(/C(C)=N/NC(N)=S)c(C)[n+]2[O-] in the same way.
Response: inactive

Request: Can you check CC[C@H](C)[C@@H]([C@@H](CC(=O)N1CCC[C@H]1[C@H](OC)[C@@H](C)C(=O)NCCc1ccccc1)OC)N(C)C(=O)C(NC(=O)[C@H](C(C)C)N(C)C)C(C)C (some centres undefined) next?
Response: active

Request: And for C/C(=C\CNc1ncnc2[nH]c(Cl)nc12)CO ?
Response: inactive

Request: Next molecule up: COC(=O)c1c(C)nc(C)c(NO)c1-c1ccccc1C(F)(F)F
Response: inactive
